Experiment: TOX21_p53_BLA_p2_viability: Viability Assessment in the Tox21 HCT-116 p53 Agonism Beta-lactamase Assay, Phase 2 (AID 2283591);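 note: compound exposure lasted 16 h at 37 °C; actives lower the ATP signal meaning cytotoxicity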
Results filed as inconclusive are left out. Activity calls are given as the source filed them. Rule for the calls: active = hit-call score of the fitted dose curve at least 0.9, where 1 is the maximum; inconclusive = response in the unintended direction; inactive = score below 0.9.

molecule	outcome
CS(=O)(=O)c1ccc([C@@H](O)[C@@H](CO)NC(=O)C(Cl)Cl)cc1	inactive
Nc1ccccn1	inactive
O=C(Nc1cccc2c(=O)cc(-c3nn[nH]n3)oc12)c1ccc(OCCCCc2ccccc2)cc1	inactive
CS(=O)(=O)Nc1ccc([N+](=O)[O-])cc1Oc1ccccc1	inactive
NNCCc1ccccc1	inactive
NCC1CCC(C(=O)O)CC1 (centres undefined)	inactive
CC(C)CN(C[C@@H](O)[C@H](Cc1ccccc1)NC(=O)O[C@H]1CO[C@H]2OCC[C@H]21)S(=O)(=O)c1ccc(N)cc1	inactive
O=C(NCC(O)CO)c1c(I)c(C(=O)NCC(O)CO)c(I)c(N(CCO)C(=O)CO)c1I (centres undefined)	inactive
C=CC1=C(C)C2=CC3=NC(=C(CC(=O)[O-])C4=NC(=C(C)C4=C([O-])[O-])C=c4[n-]c(c(C)c4CC)=CC1=N2)[C@@H](CCC(=O)[O-])[C@@H]3C.[Cu+2].[Na+].[Na+].[Na+]	inactive

Reference source: PubChem BioAssay (EPA / NIEHS)
